molecular target: human GPR120 (Homo sapiens, UniProt Q5NUL3); construct: expressed in transfected cells; assay: cAMP assay in CHO-hGPR120 cells; assay type: cell-based; details: cAMP production in CHO-hGPR120 cells; mean ± SEM
Sequence (Q5NUL3 whole entry): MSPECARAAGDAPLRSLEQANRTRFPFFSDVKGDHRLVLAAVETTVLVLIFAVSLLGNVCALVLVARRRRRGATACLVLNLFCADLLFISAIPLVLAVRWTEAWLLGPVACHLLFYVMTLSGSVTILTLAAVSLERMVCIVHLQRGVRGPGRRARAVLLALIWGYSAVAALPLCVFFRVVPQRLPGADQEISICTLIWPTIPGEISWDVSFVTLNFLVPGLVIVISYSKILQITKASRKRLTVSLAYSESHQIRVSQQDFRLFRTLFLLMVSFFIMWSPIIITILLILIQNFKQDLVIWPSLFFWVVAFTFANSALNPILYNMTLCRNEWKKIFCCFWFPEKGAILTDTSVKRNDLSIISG
readoutType: EC50 (nM)
State just the number; it will be interpreted in nM.

Req: Given C#Cc1cc(Oc2cccnc2)cc(N2Cc3ccccc3S2(=O)=O)c1 [AZ13581837] , state its recorded EC50.
Resp: 60

---

target: mouse GPR40 (Mus musculus, UniProt Q76JU9); assay: Calcium mobilization assay in HEK293-mGPR40 cells; settings: calcium mobilization
Sequence (Q76JU9 whole entry): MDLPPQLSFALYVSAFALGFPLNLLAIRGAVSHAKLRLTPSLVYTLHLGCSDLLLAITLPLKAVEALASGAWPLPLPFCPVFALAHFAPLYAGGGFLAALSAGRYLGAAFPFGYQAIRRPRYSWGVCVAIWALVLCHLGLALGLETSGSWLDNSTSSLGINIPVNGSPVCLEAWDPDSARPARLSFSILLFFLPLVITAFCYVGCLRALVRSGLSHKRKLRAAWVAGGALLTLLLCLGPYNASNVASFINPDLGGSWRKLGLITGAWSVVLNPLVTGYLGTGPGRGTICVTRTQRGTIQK
readoutType: EC50 (nM)
State just the number; it will be interpreted in nM.

Req: Given O=C(O)CCc1ccc(NCc2cccc(Oc3ccccc3)c2)cc1 , state its recorded EC50.
Resp: 900

---

Molecular target: mouse GPR120 (Mus musculus, UniProt Q7TMA4)
Sequence (Q7TMA4 1-361): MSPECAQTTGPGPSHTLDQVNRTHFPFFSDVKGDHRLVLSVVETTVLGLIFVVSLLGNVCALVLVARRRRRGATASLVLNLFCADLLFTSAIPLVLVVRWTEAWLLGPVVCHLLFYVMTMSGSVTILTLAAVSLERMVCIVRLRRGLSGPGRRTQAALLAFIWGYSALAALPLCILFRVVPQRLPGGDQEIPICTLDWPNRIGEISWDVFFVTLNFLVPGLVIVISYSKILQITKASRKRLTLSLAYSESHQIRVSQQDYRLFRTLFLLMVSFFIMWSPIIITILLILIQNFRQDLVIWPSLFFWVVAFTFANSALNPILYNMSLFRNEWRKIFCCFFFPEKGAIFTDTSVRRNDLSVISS
Assay: DMR assay in CHO-mGPR120 cells
readoutType: EC50 (nM)
State just the number; it will be interpreted in nM.

Req: Given C#Cc1cc(Oc2cccnc2)cc(N2Cc3ccccc3S2(=O)=O)c1 , state its recorded EC50.
Resp: 4.3
